Test system: HepDE19 cells
Test: Cytotoxicity (CCK-8 cell viability) and selectivity index
Type: cell-based, human
Settings: CC50 value/EC50 value
parameter: Selectivity index (CC50/EC50)

In [3]: df
Out[3]:
                                   compound  lt_gt_eq  meas_value
0  COC(=O)C1=C(CN2[C@@H]3COC[C@H]2CC2(C3)N=N2)NC(c2nccs2)=N[C@H]1c1ccc(F)cc1Cl         =       14845
1  COC(=O)C1=C(CN2C3COCC2CC(NS(C)(=O)=O)C3)NC(c2nccs2)=N[C@H]1c1ccc(F)cc1Cl (stereo partly drawn)         =       11875
2  COC(=O)C1=C(CN2CC3(CO)CC2CO3)NC(c2nccs2)=N[C@H]1c1ccc(F)cc1Cl (stereo partly drawn)         >        5848
3  CCOC(=O)C1=C(CN2[C@@H]3COC[C@H]2C[C@H](CC(=O)O)C3)NC(c2nccs2)=N[C@H]1c1ccc(F)c(F)c1C         =       36515
4  COC(=O)C1=C(CN2C3COCC2c2[nH]ncc23)NC(c2nccs2)=N[C@H]1c1ccc(F)cc1Cl (stereo partly drawn)         =       85280
5  COC(=O)C1=C(CN2[C@@H]3COC[C@H]2C[C@H](CC(=O)O)C3)NC(c2nccs2)=N[C@H]1c1cccc(F)c1Cl         >        6410

* * *

Test: Cytotoxicity (CCK-8 cell viability) and selectivity index
Assay type: cell-based, human
Details: human, HepDE19 cells; cytotoxicity, concentration resulting in death of 50% of host cells
parameter: CC50 at 5 days (µM)

>>> print(df.to_string())
                                    compound       parameter  lt_gt_eq  meas_value
 0  COC(=O)C1=C(CN2C3COCC2c2cnoc2C3)NC(c2nccs2)=N[C@H]1c1ccc(F)cc1Cl (some centres unmarked)  CC50 at 5 days         =          33
 1  COC(=O)C1=C(CN2C3COCC2CC(CC(=O)O)C3)NC(c2nccs2)=N[C@H]1c1ccc(F)cc1Br (some centres unmarked)  CC50 at 5 days         >         100
 2  COC(=O)C1=C(CN2C3COCC2CN(C(=O)OC)C3)NC(c2nccs2)=N[C@H]1c1ccc(F)cc1Cl  CC50 at 5 days         =          50
 3  COC(=O)C1=C(CN2C3CC(F)(F)C2C[C@@](O)(CC(=O)O)C3)NC(c2nccs2)=N[C@@H]1c1ccc(F)c(F)c1C (single isomer, unassigned)  CC50 at 5 days         =          45
 4  COC(=O)C1=C(CN2C3COCC2CC(NS(C)(=O)=O)C3)NC(c2nccs2)=N[C@H]1c1ccc(F)cc1Cl (some centres unmarked)  CC50 at 5 days         =          38
 5  COC(=O)C1=C(CN2C3COCC2C(F)(F)C3)NC(c2nccs2)=N[C@H]1c1ccc(F)cc1Cl (some centres unmarked)  CC50 at 5 days         =          74
 6  COC(=O)C1=C(CN2C3COCC2CN(CC(F)F)C3)NC(c2nccs2)=N[C@H]1c1ccc(F)cc1Cl  CC50 at 5 days         >         100
 7  COC(=O)C1=C(CN2[C@H]3COC[C@@H]2[C@H](CC(=O)O)C3)NC(c2nccs2)=N[C@H]1c1ccc(F)cc1Br  CC50 at 5 days         >         100
 8  CCOC(=O)C1=C(CN2[C@@H]3COC[C@H]2C[C@H](CC(=O)O)C3)NC(c2nccs2)=N[C@H]1c1ccc(F)cc1Br  CC50 at 5 days         >         100
 9  COC(=O)C1=C(CN2[C@@H]3C[C@@H](CC(=O)O)C[C@H]2C(F)(F)C3)NC(c2nccs2)=N[C@H]1c1ccc(F)c(F)c1C  CC50 at 5 days         =          79
10  COC(=O)C1=C(CN2C3CC(F)(F)C2C[C@H]3C(=O)O)NC(c2nccs2)=N[C@H]1c1ccc(F)cc1Cl (some centres unmarked)  CC50 at 5 days         >         100
11  CCOC(=O)C1=C(CN2[C@@H]3COC[C@H]2C[C@H](CC(=O)O)C3)NC(c2nccs2)=N[C@H]1c1ccc(F)c(F)c1C  CC50 at 5 days         =          73
12  COC(=O)C1=C(CN2C3COCC2CC(NC(C)=O)C3)NC(c2nccs2)=N[C@H]1c1ccc(F)cc1Cl (some centres unmarked)  CC50 at 5 days         =          50
13  COC(=O)C1=C(CN2[C@@H]3COC[C@H]2C[C@H](NS(C)(=O)=O)C3)NC(c2nccs2)=N[C@H]1c1ccc(F)cc1Cl  CC50 at 5 days         =          34

* * *

Assay: Lyophilisation solubility assay (Lysa)
Format: physicochemical
Conditions: pH 6.5, aqueous buffer, thermodynamic from solid
parameter: solubility thermodynamic

>>> df
                                   compound                 parameter   meas_value
0  CCOC(=O)C1=C(CN2C3COCC2C(C(=O)O)C3)NC(c2nccs2)=N[C@H]1c1ccc(F)cc1Br (stereo partly drawn)  solubility thermodynamic  > 630 µg/mL
1  COC(=O)C1=C(CN2[C@H]3CC[C@]2(C(=O)O)CC3(F)F)NC(c2nccs2)=N[C@H]1c1ccc(F)cc1Cl  solubility thermodynamic  > 655 µg/mL
2  COC(=O)C1=C(CN2C3COCC2CN(C)C3)NC(c2nccs2)=N[C@H]1c1ccc(F)cc1Cl  solubility thermodynamic  > 597 µg/mL
3  COC(=O)C1=C(CN2[C@@H]3COC[C@H]2CC(OCC(=O)O)C3)NC(c2nccs2)=N[C@H]1c1ccc(F)cc1Cl (stereo partly drawn)  solubility thermodynamic  > 685 µg/mL
4  COC(=O)C1=C(CN2C3COCC2CC(C(=O)O)C3)NC(c2nccs2)=NC1c1ccc(F)c(F)c1 (stereo not drawn)  solubility thermodynamic  > 678 µg/mL
5  COC(=O)C1=C(CN2C3COCC2CC(CC(=O)O)C3)NC(c2nccs2)=N[C@H]1c1ccccc1Br (stereo partly drawn)  solubility thermodynamic  > 695 µg/mL

* * *

Test: Lyophilisation solubility assay (Lysa)
Assay type: physicochemical
Details: pH 6.5, aqueous buffer, thermodynamic from solid
parameter: solubility thermodynamic

                                   molecule   meas_value
0  COC(=O)C1=C(CN2C3COCC2C(O)[C@@H](CC(=O)O)C3)NC(c2nccs2)=N[C@H]1c1ccc(F)cc1Cl (stereo partly drawn)  > 753 µg/mL
1  COC(=O)C1=C(CN2C3COCC2CC(C(=O)O)C3)NC(c2nccs2)=N[C@H]1c1ccc(F)cc1Br (stereo partly drawn)  > 660 µg/mL
2  COC(=O)C1=C(CN2[C@@H]3CC[C@@]2(C(=O)O)COC3)NC(c2nccs2)=N[C@H]1c1ccc(F)c(F)c1C  > 639 µg/mL

* * *

Test system: HepDE19 cells
Assay: Cytotoxicity (CCK-8 cell viability) and selectivity index
Type: cell-based, human
Conditions: CC50 value/EC50 value
Method: HepG2.2.15 and HepDE19 are stably-transfected cell lines containing the HBV genome. […] In a cell culture model, apparent antiviral activity of a compound can be the result of host cell death after exposure to the compound. […] Five days after treatment, cell viability was measured by addition of 20 μL of CCK-8 reagent. Two hours after incubation at 37° C., the absorbance at wavelengths of 450 nm and 630 nm (OD450 and OD630) was recorded by a plate reader. […]

compound	Selectivity index (CC50/EC50)
COC(=O)C1=C(CN2C3COCC2CN(CC(F)F)C3)NC(c2nccs2)=N[C@H]1c1ccc(F)cc1Cl [Example 14]	>7692
COC(=O)C1=C(CN2C3COCC2CC(O)(CO)C3)NC(c2nccs2)=N[C@H]1c1ccc(F)cc1Cl (stereo partly shown) [Example 10]	>11364
COC(=O)C1=C(CN2C3COCC2CC(CC(=O)O)C3)NC(c2nccs2)=N[C@H]1c1ccc(F)cc1Cl (stereo partly shown) [Example 24]	>7692
COC(=O)C1=C(CN2C3COCC2CC(O)C3)NC(c2nccs2)=N[C@H]1c1ccc(F)cc1Cl (stereo partly shown) [Example 7]	>8333
COC(=O)C1=C(CN2CC3(CNC(C)=O)CC2CO3)NC(c2nccs2)=N[C@H]1c1ccc(F)cc1Cl (stereo partly shown) [Example 145]	>5882
COC(=O)C1=C(CN2[C@@H]3COC[C@H]2C[C@H](CC(=O)O)C3)NC(c2nccs2)=N[C@H]1c1ccc(F)cc1Br [Example 58]	>8772
COC(=O)C1=C(CN2C3COCC2C(F)(F)[C@H](CC(=O)O)C3)NC(c2nccs2)=N[C@H]1c1ccc(F)cc1Cl (stereo partly shown) [Example 126]	>9709
CCOC(=O)CC1(NS(C)(=O)=O)CC2COCC(C1)N2CC1=C(C(=O)OC)[C@H](c2ccc(F)cc2Cl)N=C(c2nccs2)N1 (stereo partly shown) [Example 146]	>200000
COC(=O)C1=C(CN2C3CC(F)(F)C2C[C@@](O)(CC(=O)O)C3)NC(c2nccs2)=N[C@H]1c1cccc(F)c1Cl (single isomer, unassigned) [Example 120]	9083
COC(=O)C1=C(CN2C3CC(F)(F)C2C[C@H]3C(=O)O)NC(c2nccs2)=N[C@H]1c1ccc(F)cc1Cl (stereo partly shown) [Example 152]	>5650
COC(=O)C1=C(CN2C3COCC2CN(C(N)=O)C3)NC(c2nccs2)=N[C@H]1c1ccc(F)cc1Br [Example 54]	7300
COC(=O)C1=C(CN2[C@@H]3COC[C@H]2C[C@H](NS(C)(=O)=O)C3)NC(c2nccs2)=N[C@H]1c1ccc(F)cc1Cl [Example 60]	21169
COC(=O)C1=C(CN2C3COCC2CN(S(C)(=O)=O)C3)NC(c2nccs2)=N[C@H]1c1ccc(F)cc1Cl [Example 11]	>15152
CCOC(=O)C1=C(CN2[C@@H]3COC[C@H]2C[C@H](CC(=O)O)C3)NC(c2nccs2)=N[C@H]1c1ccccc1Br [Example 77]	>7143
CCOC(=O)C1=C(CN2C3COCC2C(F)(F)[C@H](CC(=O)O)C3)NC(c2nccs2)=N[C@H]1c1ccc(F)c(F)c1C (stereo partly shown) [Example 128]	14056
CCOC(=O)CC1(NC(=O)C(F)(F)F)CC2COCC(C1)N2CC1=C(C(=O)OC)[C@H](c2ccc(F)cc2Cl)N=C(c2nccs2)N1 (stereo partly shown) [Example 147]	>111111
COC(=O)C1=C(CN2C3CC(F)(F)C2C[C@@](O)(CC(=O)O)C3)NC(c2nccs2)=N[C@@H]1c1ccc(F)c(F)c1C (single isomer, unassigned) [Example 118]	8960
COC(=O)C1=C(CN2[C@@H]3C[C@H](CC(=O)O)C[C@H]2C(F)(F)C3)NC(c2nccs2)=N[C@H]1c1cccc(F)c1Cl [Example 88]	39662
COC(=O)C1=C(CN2C3COCC2CC(CC(=O)O)C3)NC(c2nccs2)=N[C@H]1c1ccc(F)cc1Br (stereo partly shown) [Example 28]	>9804
